Tested on: synthetic oligopeptides
Type: biochemical
Run Conditions: substrate […] (SEQ ID NO:6), 4 mM oligopeptide, pH 7.5, 37° C.
Reported Endpoint: Specific activity (unit/mg)
Put your answer as a value accompanied by its unit after it.

Molecule: MetAP-*GG (protein) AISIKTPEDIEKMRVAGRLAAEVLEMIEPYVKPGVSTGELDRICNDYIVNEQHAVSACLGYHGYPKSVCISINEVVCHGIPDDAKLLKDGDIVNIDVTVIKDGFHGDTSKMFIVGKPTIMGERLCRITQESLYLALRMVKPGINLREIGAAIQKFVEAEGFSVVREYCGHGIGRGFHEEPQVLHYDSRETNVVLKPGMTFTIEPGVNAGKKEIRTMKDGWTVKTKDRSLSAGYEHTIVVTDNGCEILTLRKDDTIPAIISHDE
Specific activity (unit/mg): 0.50 ± 0.02 unit/mg
--
Molecule: MetAP-YMQ: wild type E. coli Met aminopeptidase (SEQ ID NO:1) (protein, listed as Escherichia coli) MAISIKTPEDIEKMRVAGRLAAEVLEMIEPYVKPGVSTGELDRICNDYIVNEQHAVSACLGYHGYPKSVCISINEVVCHGIPDDAKLLKDGDIVNIDVTVIKDGFHGDTSKMFIVGKPTIMGERLCRITQESLYLALRMVKPGINLREIGAAIQKFVEAEGFSVVREYCGHGIGRGFHEEPQVLHYDSRETNVVLKPGMTFTIEPMVNAGKKEIRTMKDGWTVKTKDRSLSAQYEHTIVVTDNGCEILTLRKDDTIPAIISHDE
Specific activity (unit/mg): 0.62 ± 0.08 unit/mg

Proceed to the following item.
For the molecule shown here, MetAP-*TG (protein) AISIKTPEDIEKMRVAGRLAAEVLEMIEPYVKPGVSTGELDRICNDYIVNEQHAVSACLGYHGYPKSVCISINEVVCHGIPDDAKLLKDGDIVNIDVTVIKDGFHGDTSKMFIVGKPTIMGERLCRITQESLYLALRMVKPGINLREIGAAIQKFVEAEGFSVVREYCGHGIGRGFHEEPQVLHYDSRETNVVLKPGMTFTIEPTVNAGKKEIRTMKDGWTVKTKDRSLSAGYEHTIVVTDNGCEILTLRKDDTIPAIISHDE , give the reported Specific activity (unit/mg). 0.59 ± 0.07 unit/mg
